Each recorded value in this set is attributed to patent US6310095A.

TARGET SYSTEM: protein farnesyltransferase (Rattus norvegicus, UniProt Q02293+Q04631)
Construct: Rat brain protein farnesyltransferase activity is measured; from tissue; host or cells: rat brain; purified according to Reiss et al., Cell 62:81-88 (1990), steps one through three
ASSAY EXPLANATION: in vitro inhibition of protein farnesyltransferase (scintillation proximity assay, biotin-K Ras B fragment)
Assay type: biochemical
PARTICULARS: at 1 × 10^-6 M
Exercise: for every item that follows, state its recorded % inhibition of farnesyltransferase.
One number for each entry, in %.

Answered cases to consult:
molecule=CSCC[C@H](NC(=O)c1ccc(Sc2ccc3ccccc3c2)cc1-c1ccccc1C)C(=O)O assay_metric="% inhibition of farnesyltransferase" endpoint_result=94
molecule=Cc1ccccc1-c1cc(CN(C2CC2)C2(Cc3ccccc3)CCC2)ccc1C(=O)N[C@@H](CCS(C)(=O)=O)C(=O)O assay_metric="% inhibition of farnesyltransferase" endpoint_result=99
molecule=CSCC[C@H](NC(=O)c1ccc(CN(C(C)C)C2(Cc3ccccc3)CCCC2)cc1-c1ccccc1C)C(=O)O assay_metric="% inhibition of farnesyltransferase" endpoint_result=72

Find the recorded % inhibition of farnesyltransferase belonging to "CSCC[C@H](NC(=O)c1ccc(CS[C@H](CO)Cc2ccccc2)cc1-c1ccccc1)C(=O)O" and report it.
88

====

TARGET SYSTEM: protein farnesyltransferase (Rattus norvegicus, UniProt Q02293+Q04631)
Construct: Rat brain protein farnesyltransferase activity is measured; from tissue; host or cells: rat brain; purified according to Reiss et al., Cell 62:81-88 (1990), steps one through three
ASSAY EXPLANATION: in vitro inhibition of protein farnesyltransferase (scintillation proximity assay, biotin-K Ras B fragment)
Assay type: biochemical
PARTICULARS: at 1 × 10^-5 M
Exercise: for every item that follows, state its recorded inhibition at 10 µM.
Numbers only, in %.

compound=CSCC[C@H](NC(=O)c1ccc(CNc2nccs2)cc1-c1ccccc1)C(=O)O target_system="protein farnesyltransferase (Rattus norvegicus, UniProt Q02293+Q04631)" assay_metric="inhibition at 10 µM" endpoint_result=61
compound=CSCC[C@H](NC(=O)c1ccc(CNc2ccc(I)cc2)cc1-c1ccccc1)C(=O)O target_system="protein farnesyltransferase (Rattus norvegicus, UniProt Q02293+Q04631)" assay_metric="inhibition at 10 µM" endpoint_result=71
compound=CSCC[C@H](NC(=O)c1ccc(CNCCN2CCCCC2)cc1-c1ccccc1)C(=O)O target_system="protein farnesyltransferase (Rattus norvegicus, UniProt Q02293+Q04631)" assay_metric="inhibition at 10 µM" endpoint_result=83
compound="COc1cc2c(cc1OC)C(CNCc1ccc(C(=O)N[C@@H](CCSC)C(=O)O)c(-c3ccccc3)c1)=CC(C1CCCCC1)C2 (stereo partly drawn)" target_system="protein farnesyltransferase (Rattus norvegicus, UniProt Q02293+Q04631)" assay_metric="inhibition at 10 µM" endpoint_result=55
compound=CSCC[C@H](NC(=O)c1ccc(CNc2cc(C(C)(C)C)[nH]n2)cc1-c1ccccc1)C(=O)O target_system="protein farnesyltransferase (Rattus norvegicus, UniProt Q02293+Q04631)" assay_metric="inhibition at 10 µM" endpoint_result=79
compound=CSCC[C@H](NC(=O)c1ccc(CNc2cccc(Oc3ccccc3)c2)cc1-c1ccccc1)C(=O)O target_system="protein farnesyltransferase (Rattus norvegicus, UniProt Q02293+Q04631)" assay_metric="inhibition at 10 µM" endpoint_result=48
compound=CSCC[C@H](NC(=O)c1ccc(CNc2ccc3c(c2)CCC3)cc1-c1ccccc1)C(=O)O target_system="protein farnesyltransferase (Rattus norvegicus, UniProt Q02293+Q04631)" assay_metric="inhibition at 10 µM" endpoint_result=72
compound=CSCC[C@H](NC(=O)c1ccc(CNc2cc(C)cc(C)c2)cc1-c1ccccc1)C(=O)O target_system="protein farnesyltransferase (Rattus norvegicus, UniProt Q02293+Q04631)" assay_metric="inhibition at 10 µM" endpoint_result=55
compound=CSCC[C@H](NC(=O)c1ccc(CNc2ccc(-c3ccccc3)cc2)cc1-c1ccccc1)C(=O)O target_system="protein farnesyltransferase (Rattus norvegicus, UniProt Q02293+Q04631)" assay_metric="inhibition at 10 µM" endpoint_result=68
compound=CCN(Cc1ccc(C(=O)N[C@@H](CCSC)C(=O)O)c(-c2ccccc2)c1)Cc1cc([N+](=O)[O-])ccc1O target_system="protein farnesyltransferase (Rattus norvegicus, UniProt Q02293+Q04631)" assay_metric="inhibition at 10 µM" endpoint_result=46

For every item below, please supply its inhibition at 10 µM.
1. CSCC[C@H](NC(=O)c1ccc(CNc2cc[nH]n2)cc1-c1ccccc1)C(=O)O
2. CSCC[C@H](NC(=O)c1ccc(CNc2cccc(CC(=O)O)c2)cc1-c1ccccc1)C(=O)O
3. COc1ccc(NCc2ccc(C(=O)N[C@@H](CCSC)C(=O)O)c(-c3ccccc3)c2)cc1
4. CSCC[C@H](NC(=O)c1ccc(CNc2ccc(C)c(C)c2)cc1-c1ccccc1)C(=O)O

[86, 48, 61, 67]

====

TARGET SYSTEM: protein farnesyltransferase (Rattus norvegicus, UniProt Q02293+Q04631)
Construct: Rat brain protein farnesyltransferase activity is measured; from tissue; host or cells: rat brain; purified according to Reiss et al., Cell 62:81-88 (1990), steps one through three
ASSAY EXPLANATION: in vitro inhibition of protein farnesyltransferase (scintillation proximity assay, biotin-K Ras B fragment)
Assay type: biochemical
PARTICULARS: at 1 × 10^-6 M
ASSAY METRIC: % inhibition of farnesyltransferase (%)
Give bare numbers, in %.

compound="CSCC[C@H](NC(=O)c1ccc(COC2CCN(Cc3ccccc3)C2)cc1-c1ccccc1C)C(=O)O (stereo partly shown) [Example 987]" endpoint_result=93
compound="CSCC[C@H](NC(=O)c1ccc(CN2CCCC(OCc3ccccc3)C2)cc1-c1ccccc1C)C(=O)O (stereo partly shown) [Example 989]" endpoint_result=88
compound="CSCC[C@H](NC(=O)c1ccc(CN(C)C(CC2CCCCC2)C(=O)N2CCCCC2)cc1-c1ccccc1C)C(=O)O (stereo partly shown) [Example 301]" endpoint_result=98

State the recorded % inhibition of farnesyltransferase for every item in the following list.
1. Cc1ccccc1-c1cc(CCc2ccccc2Oc2ccccc2)ccc1C(=O)N[C@@H](CC[S+](C)[O-])C(=O)O (stereo partly shown) [Example 456]
2. CSCC[C@H](NC(=O)c1ccc(/C=C/c2cnc(Oc3ccccc3)cn2)cc1-c1ccccc1C)C(=O)O [Example 812]
3. Cc1ccccc1-c1cc(CNC(C)(C)Cc2ccccc2)ccc1C(=O)N[C@@H](CCS(C)(=O)=O)C(=O)O [Example 311]
4. CSCC[C@H](NC(=O)c1ccc(OCCOC2CCCCC2)cc1-c1ccccc1C)C(=O)[O-].[Li+] [Example 565]

[81, 94, 97, 94]

====

TARGET SYSTEM: protein farnesyltransferase (Rattus norvegicus, UniProt Q02293+Q04631)
Construct: Rat brain protein farnesyltransferase activity is measured; from tissue; host or cells: rat brain; purified according to Reiss et al., Cell 62:81-88 (1990), steps one through three
ASSAY EXPLANATION: in vitro inhibition of protein farnesyltransferase (scintillation proximity assay, biotin-K Ras B fragment)
Type: biochemical
PARTICULARS: read-out: % inhibition of farnesyltransferase
Protocol: The ability of the compounds of the invention to inhibit protein farnesyltransferase or protein geranylgeranyltransferase can be measured according to the method of Moores, et al., J. Biol. Chem. 266: 14603 (1991) or the method of Vogt, et al., J. Biol. Chem. 270:660-664 (1995). […] In addition, in vitro inhibition of protein farnesyltransferase may be measured by the following procedure. […] The % inhibition of protein farnesyltransferase was determined for representative compounds of the invention.
Counter-ions that a name gives are not always drawn.
So I've got a bunch of molecules here, and I need their inhibition at 1 µM values.
One number for each entry, in %.

Check out these entries, answers already filled in.
molecule="CCOC(=O)N1CCC(NCc2ccc(C(=O)N[C@@H](CCSC)C(=O)O)c(-c3ccccc3C)c2)CC1 [Example 806, lithium salt]" quantity_unit=% endpoint_result=72
molecule="CSCC[C@H](NC(=O)c1ccc(NC(=O)C2=C(C(F)(F)F)C=CNC2)cc1-c1ccccc1)C(=O)O [Example 283, sodium salt]" quantity_unit=% endpoint_result=98
molecule="CSCC[C@H](NC(=O)c1ccc(CNCc2ccco2)cc1-c1ccccc1)C(=O)O [Example 302, lithium salt]" quantity_unit=% endpoint_result=31

Kindly consider the entry below.
Which inhibition at 1 µM value is on record for CSCC[C@H](NC(=O)c1ccc(CN(Cc2ccccc2)c2ccccc2SC)cc1-c1ccccc1C)C(=O)O [Example 850, lithium salt] ?
90

====

TARGET SYSTEM: protein farnesyltransferase (Rattus norvegicus, UniProt Q02293+Q04631)
Construct: Rat brain protein farnesyltransferase activity is measured; from tissue; host or cells: rat brain; purified according to Reiss et al., Cell 62:81-88 (1990), steps one through three
ASSAY EXPLANATION: in vitro inhibition of protein farnesyltransferase (scintillation proximity assay, biotin-K Ras B fragment)
Format: biochemical
PARTICULARS: at 1 × 10^-6 M
What % inhibition of farnesyltransferase was measured for each of the following?
One number for each entry, in %.

Would you please look over these solved cases?
molecule="CSCC[C@H](NC(=O)c1ccc(S(=O)(=O)NCCN2CCCCC2)cc1-c1ccccc1C)C(=O)O [Example 774]" target_system="protein farnesyltransferase (Rattus norvegicus, UniProt Q02293+Q04631)" assay_metric="% inhibition of farnesyltransferase" endpoint_result=48
molecule="CSCC[C@H](NC(=O)c1ccc(C=Cc2ccccc2Oc2ccccc2)cc1-c1ccccc1C)C(=O)[O-].[Li+] [Example 453]" target_system="protein farnesyltransferase (Rattus norvegicus, UniProt Q02293+Q04631)" assay_metric="% inhibition of farnesyltransferase" endpoint_result=90
molecule="CSCC[C@H](NC(=O)c1ccc(CSCc2ccccc2C)cc1-c1ccccc1C)C(=O)[O-].[Li+] [Example 557]" target_system="protein farnesyltransferase (Rattus norvegicus, UniProt Q02293+Q04631)" assay_metric="% inhibition of farnesyltransferase" endpoint_result=93

# input for lookup
Lab note: need % inhibition of farnesyltransferase for CSCC[C@H](NC(=O)c1ccc(CCc2ccccc2-c2ccccc2)cc1-c1ccccc1C)C(=O)[O-].[Li+] [Example 452] on protein farnesyltransferase (Rattus norvegicus, UniProt Q02293+Q04631), anyone have it?
96
